- targetEntity: UniProt:Q12809
- Sequence (Q12809 whole entry): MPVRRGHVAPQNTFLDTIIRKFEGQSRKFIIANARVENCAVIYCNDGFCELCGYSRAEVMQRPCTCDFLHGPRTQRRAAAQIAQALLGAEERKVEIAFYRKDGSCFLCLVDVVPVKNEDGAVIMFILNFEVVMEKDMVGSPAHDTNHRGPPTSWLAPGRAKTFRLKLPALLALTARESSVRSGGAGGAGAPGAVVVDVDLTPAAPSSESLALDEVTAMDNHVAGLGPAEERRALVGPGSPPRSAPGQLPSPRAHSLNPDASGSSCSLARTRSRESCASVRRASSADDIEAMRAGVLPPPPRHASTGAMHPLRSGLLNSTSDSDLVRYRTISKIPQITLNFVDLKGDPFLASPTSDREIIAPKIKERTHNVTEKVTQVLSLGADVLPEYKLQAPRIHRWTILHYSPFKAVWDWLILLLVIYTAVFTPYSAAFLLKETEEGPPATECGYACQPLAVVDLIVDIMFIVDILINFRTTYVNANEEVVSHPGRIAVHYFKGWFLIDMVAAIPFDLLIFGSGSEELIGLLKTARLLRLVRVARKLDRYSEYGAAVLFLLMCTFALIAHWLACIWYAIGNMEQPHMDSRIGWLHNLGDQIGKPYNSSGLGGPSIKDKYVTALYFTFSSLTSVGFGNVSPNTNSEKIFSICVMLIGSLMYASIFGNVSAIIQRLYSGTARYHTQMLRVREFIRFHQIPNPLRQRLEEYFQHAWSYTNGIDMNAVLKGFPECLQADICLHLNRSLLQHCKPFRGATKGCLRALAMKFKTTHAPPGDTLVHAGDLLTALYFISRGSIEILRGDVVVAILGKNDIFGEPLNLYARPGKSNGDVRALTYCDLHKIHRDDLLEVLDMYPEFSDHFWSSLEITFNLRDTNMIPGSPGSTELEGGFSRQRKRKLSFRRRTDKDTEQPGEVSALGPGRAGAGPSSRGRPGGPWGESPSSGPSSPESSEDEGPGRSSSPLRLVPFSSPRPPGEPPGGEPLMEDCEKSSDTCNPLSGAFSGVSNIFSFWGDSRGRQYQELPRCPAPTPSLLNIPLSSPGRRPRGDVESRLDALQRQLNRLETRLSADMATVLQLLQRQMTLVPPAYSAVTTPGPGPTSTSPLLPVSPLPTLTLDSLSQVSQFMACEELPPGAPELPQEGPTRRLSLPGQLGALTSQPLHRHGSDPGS
- protocolNotes: in vitro
- assayConditions: pH 7.4

- molecule: "CC(C)(CN1CCC(=C2c3ccc(F)cc3COc3ccccc32)CC1)C(=O)O [Compound 49a]"
  IC50: "93 µM"

---

- targetEntity: H1 histamine receptor (Bos taurus, UniProt P30546)
- Construct: the receptors were obtained from bovine cerebellar membrane tissue; from tissue; host or cells: bovine cerebellar membranes
- Sequence (P30546 whole entry): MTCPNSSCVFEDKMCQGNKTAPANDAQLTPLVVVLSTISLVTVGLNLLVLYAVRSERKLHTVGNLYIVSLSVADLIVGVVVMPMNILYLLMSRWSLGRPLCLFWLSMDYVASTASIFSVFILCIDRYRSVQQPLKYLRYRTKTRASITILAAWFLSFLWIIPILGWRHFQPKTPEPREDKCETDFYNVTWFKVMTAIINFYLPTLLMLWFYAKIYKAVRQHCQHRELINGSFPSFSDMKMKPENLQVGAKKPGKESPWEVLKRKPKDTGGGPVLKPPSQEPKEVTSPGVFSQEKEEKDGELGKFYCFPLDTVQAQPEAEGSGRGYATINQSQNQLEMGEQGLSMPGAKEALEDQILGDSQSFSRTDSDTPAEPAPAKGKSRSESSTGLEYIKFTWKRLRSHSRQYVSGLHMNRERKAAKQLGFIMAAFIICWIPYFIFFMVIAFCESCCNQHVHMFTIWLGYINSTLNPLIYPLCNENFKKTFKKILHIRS
- protocolNotes: Histamine H1 competitive binding assay ([3H]pyrilamine)
- Design: species or system bovine
- assayConditions: read-out: Ki H1
pKi: −log10 of the molar value.
readoutType: pKi

- compound: "CC(C)(CN1CCC(=C2c3ccc(Cl)cc3COc3ccccc32)CC1)C(=O)O [Compound 51a]"
  readoutType: "pKi"
  reportedValue: 7.58
- compound: "O=C(O)C1(CN2CCC(=C3c4ccc(Cl)cc4COc4ccccc43)CC2)CC1 [Compound 51b]"
  readoutType: "pKi"
  reportedValue: 7.14
- compound: "COc1ccc2c(c1)COc1ccc(F)cc1C2=C1CCN(CC(C)(C)C(=O)O)CC1 [Compound 47a]"
  readoutType: "pKi"
  reportedValue: 6.95
- compound: "CC(C)(CCN1CCC(=C2c3ccccc3COc3ccccc32)CC1)C(=O)O [Compound 70a]"
  readoutType: "pKi"
  reportedValue: 7.43
- compound: "COc1ccc2c(c1)COc1ccccc1C2=C1CCN(CCC2(C(=O)O)CC2)CC1 [Compound 62b]"
  readoutType: "pKi"
  reportedValue: 7.25
- compound: "COc1ccc2c(c1)C(=C1CCN(CCC3(C(=O)O)CC3)CC1)c1ccccc1CO2 [Compound 67b]"
  readoutType: "pKi"
  reportedValue: 7.20
- compound: "O=C(O)CN1CCC(=C2c3ccccc3COc3ccccc32)CC1 [Compound 71e]"
  readoutType: "pKi"
  reportedValue: 7.22
- compound: "COc1ccc2c(c1)C(=C1CCN(CC(C)(C)C(=O)O)CC1)c1ccc(F)cc1CO2 [Compound 46a]"
  readoutType: "pKi"
  reportedValue: 6.87

---

This listing pairs compounds with measured pKi.
- targetEntity: UniProt P11229
- Sequence (P11229 whole entry): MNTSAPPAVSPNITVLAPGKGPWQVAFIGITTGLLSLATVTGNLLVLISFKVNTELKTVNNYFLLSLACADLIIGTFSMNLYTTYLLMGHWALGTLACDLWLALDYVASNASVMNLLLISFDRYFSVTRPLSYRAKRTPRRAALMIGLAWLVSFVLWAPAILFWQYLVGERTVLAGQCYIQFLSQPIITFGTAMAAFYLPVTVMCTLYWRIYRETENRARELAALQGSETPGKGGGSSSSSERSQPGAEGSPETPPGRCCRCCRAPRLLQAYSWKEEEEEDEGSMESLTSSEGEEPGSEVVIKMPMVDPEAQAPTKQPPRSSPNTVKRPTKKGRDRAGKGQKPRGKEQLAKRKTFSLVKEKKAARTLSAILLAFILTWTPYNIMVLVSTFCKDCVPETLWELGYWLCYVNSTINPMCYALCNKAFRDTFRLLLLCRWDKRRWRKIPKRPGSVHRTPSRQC
- protocolNotes: Muscarinic M1 binding assay ([3H]-scopolamine, N-methyl chloride)
- Design: purchased PerkinElmer, Inc., Wellesley, Mass; host or cells: CHO cells
- assayConditions: read-out: Ki M1
pKi: −log10 of the molar value.

- compound: "CC(C)(CCN1CCC(=C2c3ccccc3COc3ccccc32)CC1)C(=O)O [Compound 70a]"
  pKi: 6.09
- compound: "O=C(O)C1(CN2CCC(=C3c4ccc(Cl)cc4COc4ccccc43)CC2)CC1 [Compound 51b]"
  pKi: "< 5.00"
- compound: "COc1ccc2c(c1)COc1ccc(F)cc1C2=C1CCN(CC(C)(C)C(=O)O)CC1 [Compound 47a]"
  pKi: "< 5.00"
- compound: "COc1ccc2c(c1)COc1ccccc1C2=C1CCN(CCC2(C(=O)O)CC2)CC1 [Compound 62b]"
  pKi: "< 5.00"
- compound: "COc1ccc2c(c1)C(=C1CCN(CC(C)(C)C(=O)O)CC1)c1ccc(F)cc1CO2 [Compound 46a]"
  pKi: "< 5.00"
- compound: "O=C(O)C1(CN2CCC(=C3c4ccc(F)cc4COc4ccccc43)CC2)CC1 [Compound 49b]"
  pKi: "< 5.00"
- compound: "O=C(O)C1(CN2CCC(=C3c4ccccc4COc4ccccc43)CC2)CC1 [Compound 69b]"
  pKi: "< 5.00"
- compound: "COc1ccc2c(c1)COc1ccccc1C2=C1CCN(CC(C)(C)C(=O)O)CC1 [Compound 50a]"
  pKi: "< 5.00"
- compound: "COc1ccc2c(c1)COc1ccccc1C2=C1CCN(CCC(C)(C)C(=O)O)CC1 [Compound 62a]"
  pKi: "< 5.00"
- compound: "O=C(O)C1(CCN2CCC(=C3c4ccc(Cl)cc4COc4ccccc43)CC2)CC1 [Compound 59b]"
  pKi: "< 5.00"
- compound: "O=C(O)CCCN1CCC(=C2c3ccccc3COc3ccccc32)CC1 [Compound 70e]"
  pKi: "< 5.00"
- compound: "O=C(O)C1(CCN2CCC(=C3c4ccc(F)cc4COc4ccccc43)CC2)CC1 [Compound 61b]"
  pKi: 6.24
- compound: "CC(C)(CCN1CCC(=C2c3ccc(F)cc3COc3ccccc32)CC1)C(=O)O [Compound 61a]"
  pKi: "< 5.00"
